Molecular target: ClpB NBD2 (Thermus thermophilus, UniProt Q9RA63, R806A)
Sequence (Q9RA63 520-854 R806A): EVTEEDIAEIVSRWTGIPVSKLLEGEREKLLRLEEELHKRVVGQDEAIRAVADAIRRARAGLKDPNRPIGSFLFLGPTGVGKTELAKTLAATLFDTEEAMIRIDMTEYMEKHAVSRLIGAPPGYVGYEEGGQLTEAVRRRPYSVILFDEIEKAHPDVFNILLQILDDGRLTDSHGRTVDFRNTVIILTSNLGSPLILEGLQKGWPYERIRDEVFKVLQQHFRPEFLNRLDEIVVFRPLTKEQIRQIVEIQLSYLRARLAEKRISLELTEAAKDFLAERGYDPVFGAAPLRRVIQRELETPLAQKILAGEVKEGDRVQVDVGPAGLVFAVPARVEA
Assay: stopped-flow FRET, competition and displacement with MANT-dADP, global fit; Kd = koff/kon
Conditions: 50 mM Tris-HCl pH 7.5, 200 mM KCl, 5 mM MgCl2, 2 mM EDTA, 25 °C; ATP-regenerating system (pyruvate kinase, phosphoenolpyruvate); read-out: Nucleotide binding / K d
observation-type: Kd (µM)
API: value field is a number in µM; no unit string.

Task: Please report Kd for the following compound: Nc1ncnc2c1ncn2[C@@H]1O[C@H](COP(=O)(O)OP(=O)(O)OP(=O)(O)O)[C@@H](O)[C@H]1O
Output: 84

---

Target: ClpB NBD2 (Thermus thermophilus, UniProt Q9RA63, R621Q)
Sequence (Q9RA63 520-854 R621Q): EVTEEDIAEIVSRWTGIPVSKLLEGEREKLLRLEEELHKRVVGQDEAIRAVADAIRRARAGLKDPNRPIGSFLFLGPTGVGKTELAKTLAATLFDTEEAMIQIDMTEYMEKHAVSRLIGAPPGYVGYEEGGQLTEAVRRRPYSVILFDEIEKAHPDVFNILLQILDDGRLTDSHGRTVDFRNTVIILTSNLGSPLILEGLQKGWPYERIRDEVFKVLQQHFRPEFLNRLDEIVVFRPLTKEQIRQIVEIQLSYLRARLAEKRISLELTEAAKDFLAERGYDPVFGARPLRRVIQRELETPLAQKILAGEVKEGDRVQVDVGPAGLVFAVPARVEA
Assay: stopped-flow FRET, displacement and competition with MANT-dADP, global fit; Kd = koff/kon
Conditions: 50 mM Tris-HCl pH 7.5, 200 mM KCl, 5 mM MgCl2, 2 mM EDTA, 25 °C; read-out: Nucleotide binding / K d
observation-type: Kd (nM)
Just the number please, in nM, no unit attached.

Task: Write down Kd measured for item Nc1ncnc2c1ncn2[C@@H]1O[C@H](COP(=O)(O)OP(=O)(O)O)[C@@H](O)[C@H]1O
Output: 1500
